# credit: the supplement of paper PMC10065799

# Study system: Hck (UniProt P08631)
# Sequence (P08631 whole entry, looked up): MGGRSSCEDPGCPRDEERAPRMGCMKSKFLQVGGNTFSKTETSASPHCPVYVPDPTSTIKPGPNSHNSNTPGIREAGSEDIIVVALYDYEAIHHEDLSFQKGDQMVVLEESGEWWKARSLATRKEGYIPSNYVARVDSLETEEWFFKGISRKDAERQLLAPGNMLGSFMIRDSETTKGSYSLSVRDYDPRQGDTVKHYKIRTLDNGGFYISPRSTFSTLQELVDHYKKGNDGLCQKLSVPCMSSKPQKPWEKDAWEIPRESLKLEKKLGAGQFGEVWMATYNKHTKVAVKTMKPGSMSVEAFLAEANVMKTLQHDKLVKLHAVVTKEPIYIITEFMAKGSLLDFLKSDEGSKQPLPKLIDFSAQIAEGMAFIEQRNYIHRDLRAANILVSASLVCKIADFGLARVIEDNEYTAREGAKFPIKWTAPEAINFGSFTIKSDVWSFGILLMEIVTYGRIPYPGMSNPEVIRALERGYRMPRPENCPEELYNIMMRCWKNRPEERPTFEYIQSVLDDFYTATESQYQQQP
# Assay method text: phosphorylation enrichment, bacterial display (enrichment ratio); higher = better substrate or ligand; peptides without Tyr show the background;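 note: 11-residue human phosphosite peptides and single-mutation variants displayed on the E. coli surface, counted by deep sequencing, each peptide's frequency after selection divided by its frequency in the unselected input library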;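 note: frequency after pTyr selection over input frequency; kinase dosed for 20-30% of maximal phosphorylation in three min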
Could you label it rule met if measured phosphorylation enrichment is 0.5 or higher, and rule not met otherwise?

Query block: Item EHVMPYAANKN [GRIN2A_Y1431] with phosphorylation enrichment of 0.5 or above?
Result block: rule not met

Query block: Item MNKNAYHNVTA [ST3GAL6_Y306] with phosphorylation enrichment of 0.5 or above?
Result block: rule not met

Query block: Item FIGRIYLYLTK [GARS1_Y414] with phosphorylation enrichment of 0.5 or above?
Result block: rule not met

Query block: Item SLGKGYYDGGC [MC4R_Y35_S36Y] with phosphorylation enrichment of 0.5 or above?
Result block: rule met

Query block: Item DEEEEYEFMNR [ERBB3_Y1197_D1194E_YF] with phosphorylation enrichment of 0.5 or above?
Result block: rule met

Query block: Item SVVVPYEPPKV [TP53_Y220_E224K] with phosphorylation enrichment of 0.5 or above?
Result block: rule not met

Query block: Item ALMGPYHGQVL [HADHA_Y343_L342P] with phosphorylation enrichment of 0.5 or above?
Result block: rule not met

Query block: Item NDQANYLLNTD [ADA_Y290_S291L] with phosphorylation enrichment of 0.5 or above?
Result block: rule not met

Query block: Item FETVKYINNER [ABCB7_Y345_F346I_YF] with phosphorylation enrichment of 0.5 or above?
Result block: rule not met

Query block: Item SVTCTYSPVLN [TP53_Y126_A129V] with phosphorylation enrichment of 0.5 or above?
Result block: rule met

Now consider a different sequence.
Query block: Item PTTKTYFPHFG [HBA1_Y43_D48G] with phosphorylation enrichment of 0.5 or above?
Result block: rule not met
